The measurements presented in this section are drawn from patent US20210188980A1.

# Study System: T1, human PD-1-His protein (human, UniProt Q15116 25-167, limits assumed)
# T1 construct: also called huPD-1; not shown: His tag
# T1 sequence (Q15116 25-167 limits assumed): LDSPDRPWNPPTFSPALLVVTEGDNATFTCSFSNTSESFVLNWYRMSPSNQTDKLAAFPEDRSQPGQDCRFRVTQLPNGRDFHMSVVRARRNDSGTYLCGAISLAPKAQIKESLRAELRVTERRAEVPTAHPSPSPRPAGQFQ
# Assay Details: SPR Biacore, Ab captured, huPD-1-His analyte
# kon per record follows
Only the number, expressed in M⁻¹ s⁻¹, is required.

Look over these answered cases.
{"Binder": "HumAb709-2 (antibody, human IgG1, kappa, L234A L235A, V domains shown, humanized mAb709) VH: EVQLVESGGGLVQPGGSLRLSCAASGFTFSFYTMSWVRQAPGKGLEWVATISGGGRDTYYPDSVKGRFTISRDNAKNSLYLQMNSLRAEDTAVYYCAGQGGNYLFAYWGQGTLVTVSS VL: DIQMTQSPSSLSASVGDRVTITCKASQDVNTVVAWYQQKPGKAPKLLIYWASTRHTGVPSRFSGSGSGTDYTLTISSLQPEDFATYYCQQHYTTPYTFGGGTKVEIKR", "Unit Name": "M⁻¹ s⁻¹", "kon": 80300}
{"Binder": "HumAb709-7 (antibody, human IgG1, kappa, L234A L235A, V domains shown, humanized mAb709) VH: EVQLVESGGGLVQPGGSLRLSCAASGFTFSFYTMSWVRQAPGKGLEWVATISGGGRDTYYPDSVKGRFTISRDNAKNSLYLQMNSLRAEDTAVYYCARQGGNYLFAYWGQGTLVTVSS VL: DIVMTQSPSSLSASVGDRVTITCKASQDVNTVVAWYQQKPGKAPKVLISWASTRHTGVPSRFSGSGSGTDYTLTISSLQPEDFATYYCQQHYTTPYTFGGGTKVEIKR", "Unit Name": "M⁻¹ s⁻¹", "kon": 141000}

Looking up mAb709c (antibody, V domains shown, also called HumAb709c) VH: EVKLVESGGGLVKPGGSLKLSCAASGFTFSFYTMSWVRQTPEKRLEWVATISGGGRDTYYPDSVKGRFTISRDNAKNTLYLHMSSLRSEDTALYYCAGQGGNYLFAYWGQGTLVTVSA VL: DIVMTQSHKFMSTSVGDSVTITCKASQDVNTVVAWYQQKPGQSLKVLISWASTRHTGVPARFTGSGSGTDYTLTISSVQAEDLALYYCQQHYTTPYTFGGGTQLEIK , I found its kon recorded as 121000
